Listed here are binders together with their documented pKd.
Biological target: T1, ROR1-His (UniProt Q01973 30-403, limits assumed)
T1 construct: The construct is described nowhere; not shown: His tag
T1 sequence (Q01973 30-403 limits assumed): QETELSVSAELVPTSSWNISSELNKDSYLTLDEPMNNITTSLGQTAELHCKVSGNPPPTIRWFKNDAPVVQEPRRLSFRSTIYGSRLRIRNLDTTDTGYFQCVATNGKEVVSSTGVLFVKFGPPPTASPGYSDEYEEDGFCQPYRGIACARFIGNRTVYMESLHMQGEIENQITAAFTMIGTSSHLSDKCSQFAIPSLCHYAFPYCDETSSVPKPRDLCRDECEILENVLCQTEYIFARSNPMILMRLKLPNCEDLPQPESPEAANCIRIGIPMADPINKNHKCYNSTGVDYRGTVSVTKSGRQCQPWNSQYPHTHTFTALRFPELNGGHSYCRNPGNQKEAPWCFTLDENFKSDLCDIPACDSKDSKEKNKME
Test: ROR1-His affinity of the construct's binding domain; method not given
Reminder that pKd means the negative base-10 logarithm of the concentration expressed in mol/L.

Record excerpt, results attached:
BINDER	pKd
Clone 14 (antibody, V domains shown, Variable regions fused to mouse constant regions (chimeric mouse IgG1 mAb) for SPR; also called hROR1 VH_14 / hROR1 VL_14) VH: EVQLVESGGGLVQPGGSLRLSCATSGFTFSSYAMSWMRQAPGKGLEWVASISRGGTTYYADSVKGRFTISVDKSKNTLYLQMNSLRAEDTAVYYCGRYDYDGYYAMDYWGQGTLVTVSS VL: DIQMTQSPSSLSASVGDRVTITCKASPDINSYLNWYQQKPGKAPKLLIYRANRLVDGVPSRFSGSGSGTDYTLTISSLQPEDFATYYCLQYDEFPYTFGAGTKVEIK	8.84
Clone 05 (antibody, V domains shown, Variable regions fused to mouse constant regions (chimeric mouse IgG1 mAb) for SPR; also called hROR1 VH_05 / hROR1 VL_05) VH: EVQLVESGGGLVQPGGSLRLSCAASGFTFSSYAMSWVRQAPGKGLEWVSSISRGGTTYYPDSVKGRFTISRDNSKNTLYLQMNSLRAEDTAVYYCGRYDYDGYYAMDYWGQGTLVTVSS VL: DIQMTQSPSSLSASVGDRVTITCKASPDINSYLSWYQQKPGKAPKLLIYRANRLVDGVPSRFSGSGSGTDFTLTISSLQPEDIATYYCLQYDEFPYTFGQGTKLEIK	7.43

Input line: What does the record list as pKd for Hum_design_14_variant3 (antibody, V domains shown, Variable regions fused to mouse constant regions (chimeric mouse IgG1 mAb) for SPR; also called hROR1 VH_14-3 / hROR1 VL_14-3) VH: EVQLVESGGGLVQPGGSLRLSCAASGFTFSSYAMSWVRQAPGKGLEWVASISRGGTTYYADSVKGRFTISRDNSKNTLYLQMNSLRAEDTAVYYCGRYDYDGYYAMDYWGQGTLVTVSS VL: DIQMTQSPSSLSASVGDRVTITCKASPDINSYLNWYQQKPGKAPKLLIYRANRLVDGVPSRFSGSGSGTDFTLTISSLQPEDIATYYCLQYDEFPYTFGGGTKVEIK ?
Output line: 8.89

Values compiled from patent US20260035432A1.
